Assignment: determine reported RALB for the given compounds.
Organism: Rattus norvegicus
Measurement protocol: Open TG-GATES - Regimen: Single
Type: toxicity, organism-based, Sprague-Dawley
Set-up: regimen Single, gender Male, age 6 weeks
Condition: in vivo, po, 1000 mg/kg, 24 h, tissue Plasma, route gavage, dose level High
Numbers only, in g/dL.

{"Compound": "CCOC(=O)CCC(=O)O[C@H]1[C@H](O[C@@H]2[C@@H](C)[C@H](O[C@H]3C[C@@](C)(OC)[C@@H](O)[C@H](C)O3)[C@@H](C)C(=O)O[C@H](CC)[C@@](C)(O)[C@H](O)[C@@H](C)C(=O)[C@H](C)C[C@@]2(C)O)O[C@H](C)C[C@@H]1N(C)C [ERYTHROMYCIN ETHYLSUCCINATE]", "Unit string": "g/dL", "RALB": 3}

Field: RALB. Fill in for each record below.
1. NC(N)=Nc1nc(CSCCC(N)=NS(N)(=O)=O)cs1 [FAMOTIDINE]
2. COC1=CC(=O)C[C@@H](C)[C@]12Oc1c(Cl)c(OC)cc(OC)c1C2=O [GRISEOFULVIN]
3. COc1ccc2[nH]c([S+]([O-])Cc3ncc(C)c(OC)c3C)nc2c1 (stereo not given) [OMEPRAZOLE]
4. CC(C)OC(=O)C(C)(C)Oc1ccc(C(=O)c2ccc(Cl)cc2)cc1 [FENOFIBRATE]

1. 3.3
2. 3.3
3. 3.4
4. 2.5

====

Organism: Rattus norvegicus
Measurement protocol: Open TG-GATES - Regimen: Single
Type: toxicity, organism-based, Sprague-Dawley
Design: regimen Single, gender Male, age 6 weeks
Condition: in vivo, po, 0 mg/kg, 3 h, tissue Plasma, route gavage, dose level Control
Assignment: determine reported RALB for the given compounds.
Numbers only, in g/dL.

Known RALB results, listed for orientation:
{"Structure string": "NNC(=O)c1ccncc1", "Unit string": "g/dL", "RALB": 3.3}
{"Structure string": "CN(C)CCCN1c2ccccc2CCc2ccccc21", "Unit string": "g/dL", "RALB": 2.6}

Field: RALB. Fill in for each record below.
1. O=C(CCCN1CCC(O)(c2ccc(Cl)cc2)CC1)c1ccc(F)cc1
2. C[C@@H]1C[C@H]2[C@@H]3CCC4=CC(=O)C=C[C@]4(C)[C@@]3(F)[C@@H](O)C[C@]2(C)[C@@]1(O)C(=O)CO
3. CN(C)CCN(Cc1cccs1)c1ccccn1

3.7
3.7
2.9

====

Assignment: determine reported TC for the given molecules.
Organism: Rattus norvegicus
Measurement protocol: Open TG-GATES - Regimen: Single
Type: toxicity, organism-based, Sprague-Dawley
Design: regimen Single, gender Male, age 6 weeks
Condition: in vivo, po, 1000 mg/kg, 24 h, tissue Plasma, route gavage, dose level High

{"Molecule": "NC(N)=Nc1nc(CSCCC(N)=NS(N)(=O)=O)cs1 [FAMOTIDINE]", "Result value": "76.2 mg/dL"}
{"Molecule": "COC1=CC(=O)C[C@@H](C)[C@]12Oc1c(Cl)c(OC)cc(OC)c1C2=O [GRISEOFULVIN]", "Result value": "88 mg/dL"}
{"Molecule": "COc1ccc2[nH]c([S+]([O-])Cc3ncc(C)c(OC)c3C)nc2c1 (stereo not given) [OMEPRAZOLE]", "Result value": "83.4 mg/dL"}
{"Molecule": "CC(C)OC(=O)C(C)(C)Oc1ccc(C(=O)c2ccc(Cl)cc2)cc1 [FENOFIBRATE]", "Result value": "57.2 mg/dL"}

Please indicate TC recorded for CCOC(=O)CCC(=O)O[C@H]1[C@H](O[C@@H]2[C@@H](C)[C@H](O[C@H]3C[C@@](C)(OC)[C@@H](O)[C@H](C)O3)[C@@H](C)C(=O)O[C@H](CC)[C@@](C)(O)[C@H](O)[C@@H](C)C(=O)[C@H](C)C[C@@]2(C)O)O[C@H](C)C[C@@H]1N(C)C [ERYTHROMYCIN ETHYLSUCCINATE]
86.6 mg/dL
